EXPERIMENTAL DETAILS: gradient 5% acetonitrile 3 min, to 50% in 2 min, to 85% in 15 min, held 3 min, 100 µL/min
CONDITION SUMMARY: column: Zorbax Extend-C18 2.1 x 50 mm; eluents: water / acetonitrile, 0.1% formic acid
METRIC NAME: RP-LC retention time (s)
Respond with the bare value in s.

Notebook: `Cc1nnc2ccc(NC3CCCC3)nn12` , RP-LC retention time read as 818

Notebook: `Cc1cc2c(=O)n(CC(=O)Nc3cccc(Cl)c3C)ccc2s1` , RP-LC retention time read as 819

----------
EXPERIMENTAL DETAILS: gradient 5% acetonitrile 3 min, to 50% in 2 min, to 85% in 15 min, held 3 min, 100 µL/min
CONDITION SUMMARY: column: Zorbax Extend-C18 2.1 x 50 mm; eluents: water / acetonitrile, 0.1% formic acid
Reported values of RP-LC retention time for individual entries
Hey, just the number and the unit after it is fine.

Some entries whose results are on file:
[
  {
    "COMPOUND": "Cn1ncc2c3ccccc3n(CC(=O)NCCc3cccs3)c2c1=O",
    "METRIC NAME": "RP-LC retention time",
    "RESULT": "784 s"
  },
  {
    "COMPOUND": "Cc1ccc(CN2C(=O)NC3(CCCN(C(=O)c4ccc5c(c4)OCO5)C3)C2=O)cc1 (centres undefined)",
    "METRIC NAME": "RP-LC retention time",
    "RESULT": "819 s"
  },
  {
    "COMPOUND": "CCOc1ccc2nc(C(=O)N3CCN(c4ccccn4)CC3)cn2n1",
    "METRIC NAME": "RP-LC retention time",
    "RESULT": "600 s"
  },
  {
    "COMPOUND": "Cc1nc2ccn(Cc3ccco3)c(=O)c2cc1C(=O)N1CCN(c2ccccn2)CC1",
    "METRIC NAME": "RP-LC retention time",
    "RESULT": "602 s"
  },
  {
    "COMPOUND": "CC(C)n1ccc(-c2nnc(NC(=O)C3CCCN(S(C)(=O)=O)C3)o2)n1 (centres undefined)",
    "METRIC NAME": "RP-LC retention time",
    "RESULT": "609 s"
  }
]

Notebook: COCCC(=O)N1CCC(Oc2nccnc2N2CCOCC2)C1 (centres undefined) , RP-LC retention time read as 613 s

Notebook: `CCOC(=O)c1c(C)[nH]c(CCC(=O)Nc2ccc(C(C)=O)cc2)c1C` , RP-LC retention time read as 800 s

Notebook: CN(C)c1ccc(CNC(=O)c2ccc3c(c2)NC(=O)C2CCCCN32)cc1 (centres undefined) , RP-LC retention time read as 617 s

Notebook: COCCN1C(=O)c2ccccc2C(C(=O)Nc2ccc3[nH]ccc3c2)C12CCCC2 (centres undefined) , RP-LC retention time read as 814 s
